Tested on: L1210 leukemia ip in BDF1 mice, survival T/C
Assay: NCI In Vivo Anticancer Drug Screen. Data for tumor model L1210 Leukemia (intraperitoneal) in B6D2F1 (BDF1) mice
Conditions: endpoint: mean survival time; dose: 50.0 mg/kg/injection; schedule: Q01DX009 (ip); vehicle: water
Inconclusive results and toxic doses are left out. No stated cut-off is given here; in the data, active means T/C of 150% or more; inactive means T/C below 125%.
Allowed answers: active, inactive

# count of solved cases: 5
Recorded test call requested for CCOC(=O)CC(C)C(Br)(C(=O)OCC)C(=O)OCC (stereo unspecified)
inactive

Okay, and C[n+]1cc2c3ccccc3c(N)cc2c2ccccc21 ?
inactive

Okay, and O=NN(Cc1cnc2[nH]c(=O)[nH]c(=O)c2n1)c1ccc(C(=O)NC(CCC(=O)O)C(=O)O)cc1 (stereo unspecified) ?
inactive

Okay, and CCCCCCCCCCCC(=O)OCC1OC2C(Oc3nc(=N)ccn32)C1OC(=O)CCCCCCCCCCC (stereo unspecified) ?
active

Okay, and COc1cc(C(=O)N2CC2)cc(OC)c1OC ?
inactive

Consider now this further molecule.
Recorded test call requested for NNC(=O)c1ccc(S(N)(=O)=O)cc1
active

* * *

Tested on: L1210 leukemia ip in BDF1 mice, survival T/C
Assay: NCI In Vivo Anticancer Drug Screen. Data for tumor model L1210 Leukemia (intraperitoneal) in B6D2F1 (BDF1) mice
Conditions: endpoint: mean survival time; dose: 200.0 mg/kg/injection; schedule: Q01DX009 (ip); vehicle: Klucel (hydroxypropylcellulose) (HPC); higher = longer survival
Inconclusive results and toxic doses are left out.
quantity: T/C

Worked cases, answers included:
Quick one: T/C of Cc1ccc(NC(=O)CCC(=O)O)cc1[N+](=O)[O-] ?
101 % of control

Okay, and COc1ccc(NC(=O)Nc2cc([N+](=O)[O-])ccc2C)cc1[N+](=O)[O-] ?
96 % of control

Okay, and Cc1cccc(Cl)c1NC(=O)c1ccc(C(=O)Nc2c(C)cccc2Cl)cc1 ?
94 % of control

Okay, and Cc1ccc(Cl)cc1NC(=O)c1ccccc1 ?
100 % of control

Okay, and CCC1(CCCCCl)OCCO1 ?
97 % of control

New cases:
Quick one: T/C of CC1C=CC(C)C(C(=O)c2ccccc2)C1C(=O)c1ccccc1 (configuration not stated) ?
94 % of control

Okay, and CS(=O)(=O)c1ccc(/C=C2/C=Cc3ccccc32)cc1 ?
103 % of control

Okay, and CC1=CCC(C(C)C)C=C1 (configuration not stated) ?
96 % of control

Okay, and CC(=O)c1ccccc1Br ?
100 % of control

Okay, and CC(=O)c1cccc(NC(=O)CCCCCCCCC(=O)Nc2cccc(C(C)=O)c2)c1 ?
91 % of control

Okay, and O=C(O)c1cc2ccccc2s1 ?
95 % of control

Okay, and O=[N+]([O-])c1ccc(SNc2ccc(O)cc2)cc1[N+](=O)[O-] ?
100 % of control

* * *

System: L1210 leukemia ip in BDF1 mice, survival T/C
Assay: NCI In Vivo Anticancer Drug Screen. Data for tumor model L1210 Leukemia (intraperitoneal) in B6D2F1 (BDF1) mice
Conditions: endpoint: mean survival time; dose: 25.0 mg/kg/injection; schedule: Q04DX003 (ip); vehicle: saline; higher = longer survival
Toxic doses and inconclusive results are not listed.
quantity: T/C

Worked cases, answers included:
// fetch L1210 leukemia ip in BDF1 mice, survival T/C T/C for CN(C=O)C(=S)[S-].CN(C=O)C(=S)[S-].CN(C=O)C(=S)[S-].O=C(Nc1ccc(S(=O)(=O)Nc2ccc(N=Nc3ccc4nc([S-])sc4c3)cc2)cc1)C(N1CC1)(N1CC1)N1CC1.[Pd]
103 % of control

Okay, and C=C(Br)CN(C)C(C)=O ?
98 % of control

Okay, and CN(C)CCN=C(Nc1ccccn1)Nc1ccccn1 ?
100 % of control

New cases:
// fetch L1210 leukemia ip in BDF1 mice, survival T/C T/C for CC(=O)N1CCC(CC[P+](c2ccccc2)(c2ccccc2)c2ccccc2)CC1
96 % of control

Okay, and CCCCCCCCCCCC[n+]1ccc(C(N)=O)cc1 ?
87 % of control

Okay, and CCCCCNC(C)C(=O)c1ccccc1 (centres undefined) ?
94 % of control

Okay, and CC(CN1CC(=O)NC(=O)C1)N1CC(=O)NC(=O)C1.[Cl-].[Pt+4] (centres undefined) ?
108 % of control

Okay, and CCCCCCCCN(N)C12CC3CC(CC(C3)C1)C2 ?
113 % of control

Okay, and COC(=O)C1C2CC3c4[nH]c5cc(OC)ccc5c4CCN3CC2CC(OC(=O)c2cc(OC)c(OC)c(OC)c2)C1OC (centres undefined) ?
106 % of control

Cited source for all entries: PubChem BioAssay AID248
